The measurements presented in this section are drawn from PubChem BioAssay (Tox21).

# assay comment: qHTS assay to identify small molecule antagonists of the estrogen related receptor (ERR) signaling pathway from Tox21 library (AID 1224848); also: nearly all actives have a fitted effect of over 50% in size
# condition label: ERR reporter cell line, luciferase antagonist mode, 18 h; series mostly up to 92.4 µM
Inconclusive results are not listed. Calls of active or inactive are those of the source. Calls follow the shape of the dose curve; as a rule, active = well fitted inhibition curve with a large enough effect in the repeat runs; inconclusive = weak or mixed curves; inactive = no such curve, though single readings can be large or run the other way.
Could you please pick one outcome from this set? active, inactive

Use these answered entries as a reference point.
In [3]: df
Out[3]:
                                   compound  class_label
0  COc1cc(/C=C/C(=O)O[C@H]2CC[C@]34C[C@]35CC[C@]3(C)[C@@H]([C@H](C)CCC=C(C)C)CC[C@@]3(C)[C@@H]5CC[C@H]4C2(C)C)ccc1O     inactive
1  OC1(c2ccc(Cl)c(C(F)(F)F)c2)CCN(CCCC(c2ccc(F)cc2)c2ccc(F)cc2)CC1       active
2  Cc1cccc(N(C)C(=S)Oc2ccc3c(c2)C2CCC3C2)c1 (configuration not stated)     inactive
3                        O=c1[nH]sc2ccccc12       active
4                 N=C1N=C(N)c2cc3ccccc3cc21       active

Request: Just curious, what result did "CCCCCCCCCCCC[N+](C)(C)CCCCCCCCCCCC" get here?
Response: active

Request: Just curious, what result did "Clc1ccc2nsnc2c1NC1=NCCN1" get here?
Response: inactive
